Molecular target: Receptor tyrosine-protein kinase erbB-2 (Homo sapiens) (UniProt P04626)
Sequence (P04626 whole entry, looked up): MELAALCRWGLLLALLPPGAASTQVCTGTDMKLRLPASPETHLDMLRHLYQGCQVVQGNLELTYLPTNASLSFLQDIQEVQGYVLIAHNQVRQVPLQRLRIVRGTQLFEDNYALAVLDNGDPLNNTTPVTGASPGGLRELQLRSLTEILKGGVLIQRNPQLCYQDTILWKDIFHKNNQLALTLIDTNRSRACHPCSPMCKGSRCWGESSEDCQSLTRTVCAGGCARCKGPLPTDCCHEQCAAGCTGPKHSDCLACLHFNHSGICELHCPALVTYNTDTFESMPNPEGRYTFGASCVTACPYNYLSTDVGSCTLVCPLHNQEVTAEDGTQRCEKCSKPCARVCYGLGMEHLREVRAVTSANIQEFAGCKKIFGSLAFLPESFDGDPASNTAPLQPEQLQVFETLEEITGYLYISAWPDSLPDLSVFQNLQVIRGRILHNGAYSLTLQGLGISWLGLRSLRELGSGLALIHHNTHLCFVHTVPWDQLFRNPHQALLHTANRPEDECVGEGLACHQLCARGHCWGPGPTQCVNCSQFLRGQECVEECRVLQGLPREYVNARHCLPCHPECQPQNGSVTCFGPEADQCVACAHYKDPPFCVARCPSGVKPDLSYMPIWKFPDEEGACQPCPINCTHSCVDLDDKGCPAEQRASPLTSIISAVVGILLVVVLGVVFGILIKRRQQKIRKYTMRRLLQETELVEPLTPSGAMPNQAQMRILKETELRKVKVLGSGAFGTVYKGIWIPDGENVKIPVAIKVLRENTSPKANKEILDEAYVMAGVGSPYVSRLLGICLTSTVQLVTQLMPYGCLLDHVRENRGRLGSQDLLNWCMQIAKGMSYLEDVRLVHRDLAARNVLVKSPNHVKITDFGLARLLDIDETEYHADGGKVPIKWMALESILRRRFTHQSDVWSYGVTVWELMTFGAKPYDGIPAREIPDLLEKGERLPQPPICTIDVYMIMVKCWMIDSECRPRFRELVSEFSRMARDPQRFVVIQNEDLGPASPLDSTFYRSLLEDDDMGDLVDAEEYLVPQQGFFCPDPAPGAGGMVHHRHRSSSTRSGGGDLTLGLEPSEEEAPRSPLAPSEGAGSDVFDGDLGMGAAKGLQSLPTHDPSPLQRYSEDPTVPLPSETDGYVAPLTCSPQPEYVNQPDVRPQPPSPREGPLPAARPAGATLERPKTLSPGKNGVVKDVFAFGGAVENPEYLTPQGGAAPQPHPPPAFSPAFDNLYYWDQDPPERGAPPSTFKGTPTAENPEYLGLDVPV
Test: reducers of endogenous Her2 protein level, primary screen, SKBR3 breast tumor cells, AlphaScreen, ATP viability (AID 461);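 note: lower value means less Her2 protein in the cells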
Details: 18-24 h, at 10 µM, stronger effect = lower value
I'd appreciate it if you marked entries true when Her2 level is lower than 90% and false when it is not.

**Query** Strictly below 90%: is that where Her2 level of CNC(=O)CC(C(=O)O)c1ccc(OC(C)C)cc1 (stereo unspecified) sits?
**Result** true

**Query** Strictly below 90%: is that where Her2 level of "COc1cccc(C(=O)Nc2ccc(C)cc2)c1" sits?
**Result** false

**Query** Strictly below 90%: is that where Her2 level of CC(C)(O)C1=NOC(c2ccccc2)C1 (stereo unspecified) sits?
**Result** false

**Query** Strictly below 90%: is that where Her2 level of "COc1ccccc1N1CCN(C(=O)c2oc3cc(C)c(C)cc3c2C)CC1" sits?
**Result** false

**Query** Strictly below 90%: is that where Her2 level of O=C(NCC1CCCO1)C1CCCN(S(=O)(=O)c2cccc3nsnc23)C1 (stereo unspecified) sits?
**Result** false

**Query** Strictly below 90%: is that where Her2 level of "CC(=O)c1cccc(NC(=O)c2ccc(NS(C)(=O)=O)cc2)c1" sits?
**Result** true

**Query** Strictly below 90%: is that where Her2 level of "N#CCc1c(C#N)c(N)nc(N2CCN(S(=O)(=O)c3ccccc3)CC2)c1C#N" sits?
**Result** true

**Query** Strictly below 90%: is that where Her2 level of "CCn1cc(C(=O)NCCCOC)c(=O)c2cc(S(=O)(=O)N(C)C3CCCCC3)ccc21" sits?
**Result** false

* * *

Test: reversal of MRP1-mediated doxorubicin resistance, pilot screen, H69AR cells, doxorubicin co-treatment (AID 601)
Conditions: H69AR cells, CellTiter-Glo, 72 h; compound alone cytotoxicity; at 10 µM
Kindly supply the reported viability values for the records listed here.
// units = %; emit number, no label

**Query** Entry "Nc1ccc(-c2ccc(N)cc2C(F)(F)F)c(C(F)(F)F)c1" : reported viability = ?
**Result** 68.6

**Query** Entry "CC(C)CNS(=O)(=O)c1ccc(CCC(=O)N2CCOCC2)cc1" : reported viability = ?
**Result** 91.3

**Query** Entry "CCOc1cc(NC(=O)c2ccco2)c(OCC)cc1NC(=O)Cc1cccc(OC)c1" : reported viability = ?
**Result** 86.7

**Query** Entry "COc1ccc(N(C(=O)c2ccco2)S(=O)(=O)c2cc(OC)ccc2OC)cc1" : reported viability = ?
**Result** 72.2

**Query** Entry "Cc1cccc(-n2nnc(C(=O)NCc3ccccc3)c2N)c1" : reported viability = ?
**Result** 90.4

**Query** Entry "COc1ccc(C(=O)NCCn2ccc3ccccc32)c(OC)c1" : reported viability = ?
**Result** 87.7

**Query** Entry "COc1cc(C)nc(NS(=O)(=O)c2ccc(C)cc2)n1" : reported viability = ?
**Result** 84.9

**Query** Entry "O=C1C(Cl)=C(N2CCCCC2)C(=O)N1c1ccccc1Cl" : reported viability = ?
**Result** 81.8

**Query** Entry "COc1ccc(-n2c(SCC(=O)c3c(N)n(C)c(=O)n(C)c3=O)nc3ccccc32)cc1" : reported viability = ?
**Result** 98.5

**Query** Entry CCOc1ccc(N(C(C)=O)C2C=CS(=O)(=O)C2)cc1 (stereo not given) : reported viability = ?
**Result** 94.9

**Query** Entry Cc1ccc(NCc2nnc(SCC(=O)N3CCCCC3)n2CC2CCCO2)c(C)c1 (stereo not given) : reported viability = ?
**Result** 88.7

**Query** Entry "CCOC(=O)CSc1nc2cc(C(=O)NCc3ccco3)ccc2c(=O)n1-c1ccc(F)cc1" : reported viability = ?
**Result** 87.5

**Query** Entry "CC1CCN(CCCNC(=O)c2cn(C)c3ccc(S(=O)(=O)N4CCCC4)cc3c2=O)CC1" : reported viability = ?
**Result** 91

**Query** Entry "CC(=O)Nc1ccc(Cl)c(C(N)=O)c1" : reported viability = ?
**Result** 95.3

**Query** Entry COCCn1nnnc1C(c1cc2cc(OC)ccc2[nH]c1=O)N1CCC(Cc2ccccc2)CC1 (stereo not given) : reported viability = ?
**Result** 9.35

**Query** Entry O=C(O)CC1CCCC(c2ccccc2)C1=O (stereo not given) : reported viability = ?
**Result** 99.6

**Query** Entry "C/C(=N\O)C(=O)NCc1ccccn1" : reported viability = ?
**Result** 92.2

**Query** Entry "O=C(CN1CCOCC1)N1CCCc2c1c(=O)oc1ccc(OCc3ccccc3)cc21" : reported viability = ?
**Result** 77.2

**Query** Entry "Cc1csc(NC(=O)CSc2nsc(SCC(=O)Nc3nc(C)cs3)c2C#N)n1" : reported viability = ?
**Result** 6.57

**Query** Entry "COCCN(CC(=O)NC1CCCCC1)C(=O)CSc1nc2ccccc2o1" : reported viability = ?
**Result** 97.6

**Query** Entry "O=C(CN1C(=O)CSC1=O)Nc1ccc(N2CCOCC2)cc1" : reported viability = ?
**Result** 101

**Query** Entry "CCC(=O)N1CCc2cc(S(=O)(=O)CCC(=O)Nc3ccc(F)c(F)c3)ccc21" : reported viability = ?
**Result** 92.3

**Query** Entry "CC(=O)Nc1ccccc1-c1nc2ccc(C(=O)N3CCN(c4ccccc4)CC3)cc2[nH]c1=O" : reported viability = ?
**Result** 93.4

**Query** Entry "O=C(C1CC1)N(Cc1ccco1)c1nc(-c2ccccc2)cs1" : reported viability = ?
**Result** 86.4

**Query** Entry "O=C(NC1CCCCC1)n1c(=O)oc2ccc(Cl)cc21" : reported viability = ?
**Result** 94.2

**Query** Entry "Cn1c2ccccc2c2ncn(CCCN3CCOCC3)c(=O)c21" : reported viability = ?
**Result** 94.6

**Query** Entry "COc1cccc(Oc2cnc(N)nc2-c2ccc(OC)cc2O)c1" : reported viability = ?
**Result** 10.8

**Query** Entry "COC(=O)c1ccc(CSc2nc3c(cnn3-c3ccc(F)cc3)c(=O)[nH]2)o1" : reported viability = ?
**Result** 92.5

**Query** Entry Cc1nc2sc(C(c3cccc(F)c3)N3CCCCC3)c(O)n2n1 (stereo not given) : reported viability = ?
**Result** 99.5

**Query** Entry "Cn1nnnc1SCC(=O)NC1CCCCC1" : reported viability = ?
**Result** 96.1

**Query** Entry "Clc1ccc(SCCn2ccnc2)cc1" : reported viability = ?
**Result** 96.2

**Query** Entry CC1=C(C#N)C(c2ccoc2)C(C(=O)OCc2ccccc2)=C(N)S1 (stereo not given) : reported viability = ?
**Result** 91.6

**Query** Entry "CCN(CC)S(=O)(=O)c1ccc2c(c1)nc(SCC(=O)NC1CC1)n2-c1ccccc1OC" : reported viability = ?
**Result** 91.3

**Query** Entry "Cc1cc(-c2ccc(F)cc2)nc2cc(C(N)=O)nn12" : reported viability = ?
**Result** 87.6

**Query** Entry "Cc1c(C(=O)OCC(C)(C)CN(C)C)oc2ccccc12" : reported viability = ?
**Result** 92.4

**Query** Entry COc1ccccc1NC(=O)CSc1nnc(-c2ccncc2)n1CC1CCCO1 (stereo not given) : reported viability = ?
**Result** 96.7

**Query** Entry "O=C(CSc1ncnc2c1cnn2-c1ccccc1)Nc1ccccc1" : reported viability = ?
**Result** 79.7

**Query** Entry CC(=O)NC(Cc1c[nH]c2ccccc12)C(=O)OCC(=O)Nc1cc(C)on1 (stereo not given) : reported viability = ?
**Result** 97

**Query** Entry O=C(NCC1CCCO1)C1c2ccccc2C(=O)N1C1CCCCCC1 (stereo not given) : reported viability = ?
**Result** 104

**Query** Entry C/C(=N\O)C(C)/[N+]([O-])=C/c1nc(C)c(C)n1O (stereo not given) : reported viability = ?
**Result** 92.8

**Query** Entry "O=C(CCN1C(=O)c2ccccc2C1=O)OCN1C(=O)c2ccccc2C1=O" : reported viability = ?
**Result** 91.8

**Query** Entry CCOC(=O)c1[nH]c(C)c(C(=O)NCC2CCCO2)c1C (stereo not given) : reported viability = ?
**Result** 101

**Query** Entry "O=C(N1CCCCCC1)N1CCN(S(=O)(=O)N2CCCCC2)CC1" : reported viability = ?
**Result** 94

**Query** Entry Cc1ccc(C)c(OCC(O)CN2C(C)CCCC2C)c1 (stereo not given) : reported viability = ?
**Result** 83.8

**Query** Entry Cc1ccc2c(c1)NC(=O)C(CC(=O)NCCN(CC(C)C)CC(C)C)O2 (stereo not given) : reported viability = ?
**Result** 91.6

meta.source: PubChem BioAssay
